- studyTarget: Paired box protein Pax-8 (Homo sapiens, UniProt Q06710)
- Sequence (Q06710 whole entry): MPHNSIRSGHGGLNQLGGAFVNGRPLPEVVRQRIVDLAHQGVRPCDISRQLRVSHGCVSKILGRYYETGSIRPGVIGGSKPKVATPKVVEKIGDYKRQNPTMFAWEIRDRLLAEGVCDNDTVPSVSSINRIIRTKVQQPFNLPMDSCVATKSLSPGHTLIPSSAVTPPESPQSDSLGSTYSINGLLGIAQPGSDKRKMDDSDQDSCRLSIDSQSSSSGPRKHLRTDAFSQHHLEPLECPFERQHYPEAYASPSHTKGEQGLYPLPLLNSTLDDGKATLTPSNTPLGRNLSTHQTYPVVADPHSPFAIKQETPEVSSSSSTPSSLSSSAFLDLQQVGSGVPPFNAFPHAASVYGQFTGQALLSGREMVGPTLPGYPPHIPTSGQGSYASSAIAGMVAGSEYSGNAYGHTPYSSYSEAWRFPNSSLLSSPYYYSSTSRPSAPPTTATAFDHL
- testSummary: inhibitors of PAX8-driven TPO luciferase reporter, dose response, RMG-I cells, cherry-pick (AID 687027);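 also: luciferase reporter driven by Pax8 target thyroperoxidase promoter measured by SteadyGlo luminescence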
- Format: functional, cell-based
Active and inactive are the calls of the source.
metricName: AC50

Consider the following illustrative entries.
The compound listed as `COc1ccccc1C#Cc1ccc([C@H]2[C@H](C#N)N(C(=O)C3CC3)[C@H]2CO)cc1` shows AC50 equal to 6.37 µM (active)

The compound listed as `COc1cc(NC(=O)Cn2ncc(Cl)c(Cl)c2=O)c(C)cc1[N+](=O)[O-]` shows AC50 equal to 4.62 µM (active)

The compound listed as `COc1cccc(C#Cc2ccc([C@H]3[C@@H](CO)N(C(=O)C4CCCC4)[C@H]3C#N)cc2)c1` shows AC50 equal to 3.15 µM (active)

Others:
The compound listed as `Oc1ccc(/C=N\Nc2cc(N3CCOCC3)nc(N3CCOCC3)n2)c(O)c1` shows AC50 equal to 20.4 µM (active)

The compound listed as `O=C(C[C@@H]1CC[C@H]2[C@@H](COC[C@H](O)CN2C(=O)Nc2ccc(Cl)c(Cl)c2)O1)NCc1ccc(Cl)cc1` shows AC50 equal to 13.5 µM (active)

The compound listed as `Cc1cccc(N(C)S(=O)(=O)c2ccc(-c3cnc(C4CC4)o3)cc2)c1` shows AC50 equal to 1.99 µM (active)

The compound listed as COC(=O)C12OCC34C(CC5C(C)=C(O)C(=O)CC5(C)C3C(O)C1O)OC(=O)C(OC(=O)/C=C(\C)C(C)C)C24 (stereo not drawn) shows AC50 equal to < 0.26 µM (active)

The compound listed as `CN1c2ccc(C#Cc3cccnc3)cc2[C@@H]2[C@@H](CCN2C(=O)Cc2cccnc2)[C@@H]1CO` shows AC50 equal to 57.2 µM (active)

The compound listed as `O=C1CN(S(=O)(=O)Cc2ccccc2)C[C@@H]2[C@@H](c3ccc(C#CC4CC4)cc3)[C@@H](CO)N12` shows AC50 equal to 4.66 µM (active)

The compound listed as `CSc1nc(-c2ccccc2)nc(C(Cl)Cl)n1` shows AC50 equal to 2.26 µM (active)

The compound listed as `O=C(Nc1ccc(Cl)c(Cl)c1)N[C@@H]1CC[C@H](CCn2cc(C3CCCCC3)nn2)O[C@H]1CO` shows AC50 equal to 19.7 µM (active)

The compound listed as `Cc1cccc(NCc2ccc(O)c3ncccc23)c1C` shows AC50 equal to 15 µM (active)

The compound listed as O=C1[C@@H]2Cc3c([nH]c4ccccc34)C(c3cccc(Br)c3)N2C(=O)CN1C1CCN(Cc2ccccc2)CC1 (stereo partly drawn) shows AC50 equal to 12.1 µM (active)

The compound listed as `CN(C[C@H]1N[C@@H](CO)[C@@H]1c1ccc(-c2cccc(F)c2)cc1)S(C)(=O)=O` shows AC50 equal to 10.3 µM (active)

----------
- studyTarget: RNA-binding protein pos-1 (Caenorhabditis elegans, UniProt G5EF15)
- Sequence (G5EF15 whole entry): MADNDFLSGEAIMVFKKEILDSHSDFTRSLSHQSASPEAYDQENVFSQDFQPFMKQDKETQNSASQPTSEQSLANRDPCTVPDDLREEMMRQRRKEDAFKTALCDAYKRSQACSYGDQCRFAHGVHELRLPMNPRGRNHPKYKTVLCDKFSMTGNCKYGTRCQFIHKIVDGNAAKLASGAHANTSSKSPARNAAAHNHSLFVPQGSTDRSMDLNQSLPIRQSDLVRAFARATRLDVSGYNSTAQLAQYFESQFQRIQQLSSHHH
- testSummary: inhibitors of POS-1/mex-3 RNA binding, dose response, biochemical, fluorescence polarization (AID 1964);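 also: purified POS-1 fused to maltose binding protein made in E. coli; potency of compounds blocking POS-1 binding to fluorescent RNA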
Calls of active or inactive are those of the source.
metricName: EC50

Consider the following illustrative entries.
The molecule listed as `O=C(NNc1ccccn1)C(=O)NNS(=O)(=O)c1ccc(F)cc1` shows EC50 equal to > 300 µM (not active)

The molecule listed as `CN1CCc2cccc3c2[C@H]1Cc1ccc(O)c(O)c1-3` shows EC50 equal to > 300 µM (inconclusive)

The molecule listed as `COc1ccc2c(c1)c1nc3ccccc3nc1n2CCn1c(=O)oc2ccccc21` shows EC50 equal to > 300 µM (inconclusive)

The molecule listed as O=C(Nc1ccnn1C1CCN(CC2CC=CCC2)CC1)c1ccccc1 (stereo not given) shows EC50 equal to 43.2 µM (active)

Others:
The molecule listed as `CC(=O)Oc1cc2cccc(OC(C)=O)c(=O)c2c(OC(C)=O)c1OC(C)=O` shows EC50 equal to 5.6 µM (active)

----------
- studyTarget: Heat shock factor protein 1 (Mus musculus)
- Sequence (P38532 whole entry): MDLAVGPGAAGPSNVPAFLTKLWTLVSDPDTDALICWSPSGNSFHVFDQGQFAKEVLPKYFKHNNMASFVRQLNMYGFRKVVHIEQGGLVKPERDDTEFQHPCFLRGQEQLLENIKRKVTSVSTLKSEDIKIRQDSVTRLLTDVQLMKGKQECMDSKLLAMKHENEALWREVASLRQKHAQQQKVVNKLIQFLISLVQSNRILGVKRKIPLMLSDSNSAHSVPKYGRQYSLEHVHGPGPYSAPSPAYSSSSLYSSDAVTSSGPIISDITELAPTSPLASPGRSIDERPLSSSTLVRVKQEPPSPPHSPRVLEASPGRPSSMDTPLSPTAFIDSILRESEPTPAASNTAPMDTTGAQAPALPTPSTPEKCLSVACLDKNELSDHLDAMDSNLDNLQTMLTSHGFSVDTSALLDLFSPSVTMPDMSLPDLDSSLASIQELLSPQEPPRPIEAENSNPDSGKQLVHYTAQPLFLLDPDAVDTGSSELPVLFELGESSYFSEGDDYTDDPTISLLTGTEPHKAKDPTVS
- testSummary: HSF1 potentiators in luciferase reporter cells, confirmation, cell-based, NIH3T3, luminescence, dose retest (AID 435004);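 also: stress induced by proteasome inhibitor MG132 added 30 min after compound; luciferase reporter driven by HSF1 response element in NIH3T3 cells; actives raise luminescence as potentiators of the MG132 stress response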
- Assay type: functional
Activity calls are given as the source filed them.
Can you answer with just one of these options? active, inactive

Ask: Test call, this compound: `CCOC(=O)CSc1cc(-c2ccccc2)nc2ncnn12`
Reply: active

Ask: Test call, this compound: O=C(N/N=C1\CC(c2ccccc2)Oc2ccccc21)c1ccc(O)cc1 (stereo unspecified)
Reply: inactive

Ask: Test call, this compound: `Cc1ccc(S(=O)(=O)c2c(N)n(-c3ccccc3)c3nc4ccccc4nc23)cc1`
Reply: active

Ask: Test call, this compound: `COc1cc(N=C(S)NC(C)(C)C)c(OC)cc1Cl`
Reply: inactive

Ask: Test call, this compound: `Cc1nn(C)cc1/C=N\NC(=O)c1ccc2c(c1)c(C)c(C)n2Cc1ccccc1`
Reply: active

Ask: Test call, this compound: `COc1ccc(NC(=O)COc2ccccc2Cc2ccccc2)cc1S(N)(=O)=O`
Reply: inactive

----------
- studyTarget: Voltage-dependent T-type calcium channel subunit alpha-1H (Homo sapiens);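 also: channel activity triggered by adding a high calcium stimulation buffer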
- Sequence (O95180 whole entry): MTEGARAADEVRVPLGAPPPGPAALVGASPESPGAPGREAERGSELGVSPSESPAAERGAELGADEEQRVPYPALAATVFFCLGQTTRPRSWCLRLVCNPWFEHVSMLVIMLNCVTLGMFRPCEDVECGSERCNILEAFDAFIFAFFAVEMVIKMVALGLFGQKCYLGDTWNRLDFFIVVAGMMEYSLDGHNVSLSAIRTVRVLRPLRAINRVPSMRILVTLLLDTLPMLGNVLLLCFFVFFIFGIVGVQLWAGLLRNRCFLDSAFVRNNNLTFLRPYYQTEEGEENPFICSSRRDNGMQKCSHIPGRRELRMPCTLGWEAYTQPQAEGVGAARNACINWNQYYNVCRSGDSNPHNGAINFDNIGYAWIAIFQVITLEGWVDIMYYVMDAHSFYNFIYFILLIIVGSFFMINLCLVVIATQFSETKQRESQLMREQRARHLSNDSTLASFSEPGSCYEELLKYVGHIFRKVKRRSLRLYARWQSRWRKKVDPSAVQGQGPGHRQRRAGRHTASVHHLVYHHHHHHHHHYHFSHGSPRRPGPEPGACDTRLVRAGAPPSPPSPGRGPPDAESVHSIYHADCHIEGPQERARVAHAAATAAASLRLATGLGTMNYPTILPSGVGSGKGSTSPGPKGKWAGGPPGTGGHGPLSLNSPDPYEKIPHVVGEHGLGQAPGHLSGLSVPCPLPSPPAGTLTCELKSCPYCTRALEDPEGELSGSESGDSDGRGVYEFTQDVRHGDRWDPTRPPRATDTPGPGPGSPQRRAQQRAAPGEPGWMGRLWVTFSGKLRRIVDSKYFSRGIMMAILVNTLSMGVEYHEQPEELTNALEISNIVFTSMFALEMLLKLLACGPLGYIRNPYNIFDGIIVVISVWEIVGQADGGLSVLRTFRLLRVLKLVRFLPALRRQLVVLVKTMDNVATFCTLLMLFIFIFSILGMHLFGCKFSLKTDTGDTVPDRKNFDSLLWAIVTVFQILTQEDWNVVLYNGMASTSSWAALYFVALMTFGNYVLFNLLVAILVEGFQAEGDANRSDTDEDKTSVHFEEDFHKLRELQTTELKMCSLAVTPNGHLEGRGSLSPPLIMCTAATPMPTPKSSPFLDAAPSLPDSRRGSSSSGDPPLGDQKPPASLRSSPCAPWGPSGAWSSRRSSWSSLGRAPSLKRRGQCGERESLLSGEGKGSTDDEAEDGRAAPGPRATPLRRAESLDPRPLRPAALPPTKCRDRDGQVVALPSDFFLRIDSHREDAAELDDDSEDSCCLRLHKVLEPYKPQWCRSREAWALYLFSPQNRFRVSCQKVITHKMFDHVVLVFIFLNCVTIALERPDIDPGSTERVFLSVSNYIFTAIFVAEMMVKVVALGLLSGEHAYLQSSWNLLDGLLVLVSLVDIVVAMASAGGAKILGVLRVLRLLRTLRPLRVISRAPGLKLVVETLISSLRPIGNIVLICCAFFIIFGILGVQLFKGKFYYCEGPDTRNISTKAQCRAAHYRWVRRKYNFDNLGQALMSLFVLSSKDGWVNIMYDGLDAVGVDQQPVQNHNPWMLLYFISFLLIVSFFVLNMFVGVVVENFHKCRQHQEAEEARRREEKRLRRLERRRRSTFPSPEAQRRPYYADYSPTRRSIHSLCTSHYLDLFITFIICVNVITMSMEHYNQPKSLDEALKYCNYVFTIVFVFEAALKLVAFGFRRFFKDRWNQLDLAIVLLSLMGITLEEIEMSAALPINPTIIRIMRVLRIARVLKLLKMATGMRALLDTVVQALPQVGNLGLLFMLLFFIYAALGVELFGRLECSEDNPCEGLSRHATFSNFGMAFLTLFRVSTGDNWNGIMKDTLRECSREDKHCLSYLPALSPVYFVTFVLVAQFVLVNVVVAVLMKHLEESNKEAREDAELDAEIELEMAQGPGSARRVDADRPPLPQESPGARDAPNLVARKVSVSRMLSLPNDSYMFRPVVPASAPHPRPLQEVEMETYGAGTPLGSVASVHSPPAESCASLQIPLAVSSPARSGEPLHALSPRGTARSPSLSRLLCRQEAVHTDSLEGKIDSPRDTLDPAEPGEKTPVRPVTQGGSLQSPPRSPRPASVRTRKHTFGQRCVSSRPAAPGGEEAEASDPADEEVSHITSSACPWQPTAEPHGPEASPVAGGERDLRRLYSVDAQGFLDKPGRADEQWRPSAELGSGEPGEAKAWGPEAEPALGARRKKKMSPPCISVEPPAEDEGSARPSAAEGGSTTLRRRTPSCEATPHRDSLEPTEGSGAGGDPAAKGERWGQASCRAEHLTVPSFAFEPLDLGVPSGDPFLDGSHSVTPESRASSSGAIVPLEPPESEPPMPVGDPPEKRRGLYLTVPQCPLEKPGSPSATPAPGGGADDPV
- Assay type: functional
Calls of active or inactive are those of the source.
metricName: EC50

The compound listed as `O=C(CSCc1ccc(Cl)cc1)NCc1ccc2c(c1)OCO2` shows EC50 equal to 4.2 µM (active)

The compound listed as `O=c1c2ccccc2nc(N2CCN(c3ccccc3)CC2)n1Cc1ccccc1` shows EC50 equal to 9.51 µM (active)

The compound listed as CCn1cc(C(=O)NCc2ccco2)c(=O)c2cc(S(=O)(=O)N3CC(C)CC(C)C3)ccc21 (stereo not given) shows EC50 equal to 2.49 µM (active)

The compound listed as `CCCCn1nnc(NC(=O)c2ccc(-c3cccc(Cl)c3)o2)n1` shows EC50 equal to 4.23 µM (active)

Others:
The compound listed as `COc1ccc(-c2noc(CCC(=O)N3CCN(c4cccc(C(F)(F)F)c4)CC3)n2)cc1` shows EC50 equal to 1.62 µM (active)

----------
Quick list: IC50 per entry.
- studyTarget: Glucose-6-phosphate 1-dehydrogenase (Homo sapiens)
- Sequence (P11413 whole entry): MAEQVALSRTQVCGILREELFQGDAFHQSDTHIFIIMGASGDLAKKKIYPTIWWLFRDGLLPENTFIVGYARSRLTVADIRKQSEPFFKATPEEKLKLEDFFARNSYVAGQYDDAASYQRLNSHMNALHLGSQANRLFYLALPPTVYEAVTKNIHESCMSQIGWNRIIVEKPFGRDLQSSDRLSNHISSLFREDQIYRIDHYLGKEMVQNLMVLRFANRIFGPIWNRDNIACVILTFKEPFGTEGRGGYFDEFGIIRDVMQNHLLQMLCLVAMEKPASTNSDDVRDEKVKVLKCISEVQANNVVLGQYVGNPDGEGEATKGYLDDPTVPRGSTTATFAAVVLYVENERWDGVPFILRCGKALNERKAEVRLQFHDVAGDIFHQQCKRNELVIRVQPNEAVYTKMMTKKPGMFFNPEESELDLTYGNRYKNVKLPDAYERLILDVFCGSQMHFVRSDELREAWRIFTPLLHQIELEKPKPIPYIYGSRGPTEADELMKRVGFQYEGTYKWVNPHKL
- testSummary: human G6PD enzyme inhibitors, dose response, selectivity assay for P. falciparum G6PD inhibitor project, biochemical, fluorescence (AID 504792)
- Assay type: functional
Active and inactive are the calls of the source.

Consider the following illustrative entries.
The compound listed as `CNCc1ccccc1Sc1cc(O)ccc1O` shows IC50 equal to 26.9 µM (inactive)

The compound listed as `C/C(Cn1nnc([N+](=O)[O-])n1)=N\NC(=O)c1ccccc1` shows IC50 equal to > 80 µM (inactive)

Moving on to the next compound.
The compound listed as `O=c1c2cc(C(F)(F)F)ccc2sn1-c1ccccc1` shows IC50 equal to 18.3 µM (active)

----------
Quick list: AC50 per entry.
- studyTarget: FAD-linked sulfhydryl oxidase ALR (Homo sapiens, UniProt P55789)
- Sequence (P55789 whole entry): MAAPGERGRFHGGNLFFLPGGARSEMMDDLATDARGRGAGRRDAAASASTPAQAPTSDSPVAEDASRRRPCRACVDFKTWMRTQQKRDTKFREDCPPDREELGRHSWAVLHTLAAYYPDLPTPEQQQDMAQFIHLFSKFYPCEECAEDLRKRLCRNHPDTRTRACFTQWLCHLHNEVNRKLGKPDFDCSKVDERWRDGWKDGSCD
- testSummary: inhibitors of human ALR sulfhydryl oxidase, dose response, biochemical, H2O2 detection, luminescence, cherry-pick (AID 493248)
The source made the active and inactive calls.

Tested on FAD-linked sulfhydryl oxidase ALR (Homo sapiens, UniProt P55789), the item `CCN(CCNC(=O)Cn1cc2c(n1)CCCC2)c1ccccc1` showed AC50 equal to 2.46 µM (active)

Tested on FAD-linked sulfhydryl oxidase ALR (Homo sapiens, UniProt P55789), the item `CC(C)c1ccc(S(=O)(=O)Nc2ccc(O)c(Sc3nc[nH]n3)c2)cc1` showed AC50 equal to 1.49 µM (active)

Tested on FAD-linked sulfhydryl oxidase ALR (Homo sapiens, UniProt P55789), the item `Nc1ncc(-c2ccccc2)c(-c2ccc(O)cc2O)n1` showed AC50 equal to 3.66 µM (active)

Tested on FAD-linked sulfhydryl oxidase ALR (Homo sapiens, UniProt P55789), the item `CN(C)Cc1ccccc1Sc1ccc(O)cc1O` showed AC50 equal to 1.78 µM (active)

Others:
Tested on FAD-linked sulfhydryl oxidase ALR (Homo sapiens, UniProt P55789), the item `O=C1NN(c2ccccc2)C(=O)/C1=C/c1ccc(-c2ccc(C(=O)O)cc2)o1` showed AC50 equal to 0.11 µM (active)

Tested on FAD-linked sulfhydryl oxidase ALR (Homo sapiens, UniProt P55789), the item O=C1CCC(C(=O)N2CCCC(Nc3ccc(F)cc3)C2)=NN1 (stereo not given) showed AC50 equal to 24.8 µM (active)

Tested on FAD-linked sulfhydryl oxidase ALR (Homo sapiens, UniProt P55789), the item `COc1ccc(NCC(=O)N/N=C/C2CCCCC2)cc1` showed AC50 equal to 4.57 µM (active)

Tested on FAD-linked sulfhydryl oxidase ALR (Homo sapiens, UniProt P55789), the item `O=S1(=O)C=C(Sc2nnc(-c3ccccc3)o2)c2ccccc21` showed AC50 equal to 0.281 µM (active)

Tested on FAD-linked sulfhydryl oxidase ALR (Homo sapiens, UniProt P55789), the item `COc1cccc(-n2c(S)nnc2CNC(=O)OC(C)(C)C)c1` showed AC50 equal to 12.1 µM (active)

Tested on FAD-linked sulfhydryl oxidase ALR (Homo sapiens, UniProt P55789), the item COc1cccc(N2CCN(CC(=O)NC(C)c3ccccc3)CC2)c1 (stereo not given) showed AC50 equal to 2.02 µM (active)
